# SYSTEM_TESTED: T1, Human CD3eg linker (human)
# T1 construct: single-chain construct; also called recombinant human CD3
# T1 chain: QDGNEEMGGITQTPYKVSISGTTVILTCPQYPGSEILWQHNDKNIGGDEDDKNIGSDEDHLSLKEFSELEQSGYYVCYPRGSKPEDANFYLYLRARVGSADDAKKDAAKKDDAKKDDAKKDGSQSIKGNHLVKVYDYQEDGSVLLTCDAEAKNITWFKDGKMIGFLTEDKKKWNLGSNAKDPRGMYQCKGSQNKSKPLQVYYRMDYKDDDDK
# PROCEDURE_TEXT: SPR, vs unmutated H183/L072
PROPERTY_LABEL: fold change of affinity (fold)
Give the number; fold is assumed, so skip it.

| BINDER | fold change of affinity [fold] |
| --- | --- |
| dBBDu183H V100iK/dBBDu072L (antibody, name in Kabat numbering, V domains shown) VH: QVQLVESGGGLVQPGRSLRLSCAASGFTFSNAWMHWVRQAPGKGLEWVAQIKDKGNAYAAYYAPSVKGRFTISRDDSKNSIYLQMNSLKTEDTAVYYCHYVHYASASTVLPAFGKDAWGQGTTVTVSS VL: DIVMTQSPLSLPVTPGEPASISCQASQELVHMNRNTYLHWYQQKPGQAPRLLIYKVSNRFPGVPDRFSGSGSGTDFTLKISRVEAEDVGVYYCAQGTSVPFTFGQGTKLEIK | 2.4 |
| dBBDu183H G65V/dBBDu072L (antibody, name in Kabat numbering, V domains shown) VH: QVQLVESGGGLVQPGRSLRLSCAASGFTFSNAWMHWVRQAPGKGLEWVAQIKDKGNAYAAYYAPSVKVRFTISRDDSKNSIYLQMNSLKTEDTAVYYCHYVHYASASTVLPAFGVDAWGQGTTVTVSS VL: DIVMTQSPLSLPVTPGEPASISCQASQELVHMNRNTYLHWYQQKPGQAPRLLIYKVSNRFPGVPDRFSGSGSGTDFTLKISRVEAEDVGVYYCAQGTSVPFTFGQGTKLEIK | 1.2 |
| dBBDu183H H96F/dBBDu072L (antibody, name in Kabat numbering, V domains shown) VH: QVQLVESGGGLVQPGRSLRLSCAASGFTFSNAWMHWVRQAPGKGLEWVAQIKDKGNAYAAYYAPSVKGRFTISRDDSKNSIYLQMNSLKTEDTAVYYCHYVFYASASTVLPAFGVDAWGQGTTVTVSS VL: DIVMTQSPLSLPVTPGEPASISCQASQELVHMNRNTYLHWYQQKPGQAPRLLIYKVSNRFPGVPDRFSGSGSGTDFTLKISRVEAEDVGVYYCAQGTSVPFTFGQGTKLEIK | 0 |
| dBBDu183H A98T/dBBDu072L (antibody, name in Kabat numbering, V domains shown) VH: QVQLVESGGGLVQPGRSLRLSCAASGFTFSNAWMHWVRQAPGKGLEWVAQIKDKGNAYAAYYAPSVKGRFTISRDDSKNSIYLQMNSLKTEDTAVYYCHYVHYTSASTVLPAFGVDAWGQGTTVTVSS VL: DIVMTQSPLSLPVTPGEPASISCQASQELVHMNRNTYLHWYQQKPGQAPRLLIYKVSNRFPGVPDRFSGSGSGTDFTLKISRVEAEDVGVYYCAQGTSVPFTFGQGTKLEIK | 2 |

In the following, a different binder is considered.
fold change of affinity reported for this binder dBBDu183H S99T/dBBDu072L (antibody, name in Kabat numbering, V domains shown) VH: QVQLVESGGGLVQPGRSLRLSCAASGFTFSNAWMHWVRQAPGKGLEWVAQIKDKGNAYAAYYAPSVKGRFTISRDDSKNSIYLQMNSLKTEDTAVYYCHYVHYATASTVLPAFGVDAWGQGTTVTVSS VL: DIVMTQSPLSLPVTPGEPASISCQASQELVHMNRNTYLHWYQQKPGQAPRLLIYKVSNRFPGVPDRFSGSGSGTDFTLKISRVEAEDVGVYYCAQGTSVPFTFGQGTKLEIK : 0.9
